Target: Neutrophil elastase (Homo sapiens, UniProt P08246)
Sequence (P08246 whole entry): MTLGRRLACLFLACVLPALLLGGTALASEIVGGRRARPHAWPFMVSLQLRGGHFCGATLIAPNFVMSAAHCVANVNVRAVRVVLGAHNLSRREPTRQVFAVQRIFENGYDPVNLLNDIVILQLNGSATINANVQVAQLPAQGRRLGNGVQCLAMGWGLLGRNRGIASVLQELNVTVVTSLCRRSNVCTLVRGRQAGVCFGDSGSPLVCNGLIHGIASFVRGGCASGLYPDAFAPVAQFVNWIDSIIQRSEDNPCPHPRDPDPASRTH
Assay: Compound was tested for its inhibitory activity against human leukocyte Elastase (HLE)
REPORTED PROPERTY: pIC50
Value format note: pIC50 is -log10 of concentration (mol/L); just state the number.

### Prompt Provide one value: measured pIC50 of CC(C)C1N=C2CN(C3Cc4ccccc4C3)C(=O)[C@H](C(C)C)N2C1(O)C(F)(F)F (stereo partly specified)
### Response 5.06
